Origin of measurements: ChEMBL document CHEMBL4385640

- EXPERIMENTAL TARGET: CYP2D6 (Homo sapiens)
- Sequence (P10635 whole entry): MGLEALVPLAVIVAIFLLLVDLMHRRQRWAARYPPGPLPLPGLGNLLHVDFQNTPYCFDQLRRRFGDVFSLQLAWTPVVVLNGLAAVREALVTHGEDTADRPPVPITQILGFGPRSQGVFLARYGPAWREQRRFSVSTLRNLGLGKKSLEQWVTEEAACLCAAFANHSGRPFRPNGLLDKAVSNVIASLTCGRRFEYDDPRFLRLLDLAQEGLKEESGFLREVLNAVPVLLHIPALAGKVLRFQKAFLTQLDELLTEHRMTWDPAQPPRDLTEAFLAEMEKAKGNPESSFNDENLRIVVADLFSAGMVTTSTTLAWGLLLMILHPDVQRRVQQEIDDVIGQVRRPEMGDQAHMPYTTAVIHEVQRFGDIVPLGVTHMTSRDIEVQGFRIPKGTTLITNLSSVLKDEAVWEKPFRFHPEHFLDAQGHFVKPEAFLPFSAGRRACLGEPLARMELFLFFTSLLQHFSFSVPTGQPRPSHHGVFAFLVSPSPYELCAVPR
- METHOD: Inhibition of CYP2D6 in human liver microsomes assessed as enzyme residual activity incubated for 30 mins by LC-MS/MS analysis relative to control
- Assay type: ADME
- EXPERIMENTAL SETUP: read-out: Activity
MEASURED METRIC: activity at 0.5 h (%)

                            chemical_string  numeric_readout
0  Cc1ncc(C)n2nc(CC(=O)N3c4nc5ccccc5n4C[C@@H]3C)nc12              102

###

- METHOD: Apparent permeability in wild type pig LLC-PK1 cells at 1 uM incubated for 3 hrs by […] LC-MS/MS analysis
- Type: ADME, cell-based, Sus scrofa
Known Papp at 3 h, 1 µM of a selection of compounds
MEASURED METRIC: Papp at 3 h, 1 µM (×10⁻⁶ cm/s)

                            chemical_string        unit  numeric_readout
0  Cc1cc(C)n2nc(CCc3cc(O)n4nc5ccccc5c4n3)nc2n1  ×10⁻⁶ cm/s              3.2
1   Cc1cc(C)n2nc(CCN3CCn4c3nc3ccccc34)nc2n1  ×10⁻⁶ cm/s             19.2
2  Cc1cc(C)n2nc(CC(=O)N3CCn4c3nc3ccccc34)nc2n1  ×10⁻⁶ cm/s             16.8
3  Cc1ncc(C)n2nc(CC(=O)N3c4nc5ccccc5n4C[C@@H]3C)nc12  ×10⁻⁶ cm/s             27.5
